assay: Metabolic stability in human liver microsomes; assay type: in vitro ADME; details: human liver microsomes, 1 h; read-out: HLM % Remaining at 1 h
quantity: remaining at 1 h (%)

Worked cases, remaining at 1 h given:
>  <compound>
Cc1nn(CC(C)(O)C(=O)N2CCN(c3cccc4[nH]ncc34)CC2)cc1-c1cccc(F)c1 (stereo not shown) [Compound 20]

>  <remaining at 1 h [%]>
18

$$$$
>  <compound>
Cc1nn(CC(C)(O)C(=O)N2CCN(c3cnc4cnccn34)CC2)cc1-c1cccc(F)c1 (stereo not shown) [Compound 17]

>  <remaining at 1 h [%]>
27

$$$$
>  <compound>
Cc1nn(CC(C)(O)C(=O)N2CCN(c3cccc4[nH]c(=O)ccc34)CC2)cc1-c1cccc(F)c1 (stereo not shown) [Compound 21]

>  <remaining at 1 h [%]>
20

$$$$

(P) Cc1nn(CC(C)(O)C(=O)N2CCN(c3cccc4c(=O)[nH]ccc34)CC2)cc1-c1cccc(F)c1 (stereo not shown) [Compound 22]
(Q) Cc1nn(CC(C)(O)C(=O)N2CCN(c3ccc4c(cnn4Cc4ccccc4)c3)CC2)cc1-c1cccc(F)c1 (stereo not shown) [Compound 18]
(R) Cc1nn(CC(C)(O)C(=O)N2CCN(c3cccc4cnccc34)CC2)cc1-c1ccc(F)c(F)c1 (stereo not shown) [Compound 10]
Data request: # rank by remaining at 1 h, ascending (min first) Your answer should be the labels, listed in the requested order.
Data returned: R, P, Q

----------
Biological target: mouse NNMT (Mus musculus, UniProt O55239)
Sequence (O55239 whole entry): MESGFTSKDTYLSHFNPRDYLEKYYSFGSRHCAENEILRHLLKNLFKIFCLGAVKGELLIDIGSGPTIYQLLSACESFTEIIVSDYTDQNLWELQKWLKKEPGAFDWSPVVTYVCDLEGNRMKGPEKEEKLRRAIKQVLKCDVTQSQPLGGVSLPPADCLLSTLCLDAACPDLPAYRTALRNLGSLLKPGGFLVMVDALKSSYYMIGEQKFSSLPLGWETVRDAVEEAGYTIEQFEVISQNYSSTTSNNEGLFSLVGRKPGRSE
Assay: Fluorescence-based NNMT enzymatic assay (mouse enzyme)
Format: biochemical
Conditions: Table 3; read-out: mNNMT IC50
Method: Experimental Procedures S2: Fluorescence-based NNMT enzymatic assay NNMT activity was measured by fluorescence based assay. The product MNA formed in the reaction reacts with acetophenone in the presence of KOH and formic acid and forms a fluorescent product 2, 7- naphthyridine. The fluorescence intensity measured with excitation at 375nm and emission at 430nm. […] A fluorescent product 2, 7- naphthyridine was measured in a Tecan reader with excitation at 375nm and emission at 430nm. […]
pIC50: −log10 of the molar value.
Some molecules, each annotated with its measured pIC50.

>  <molecule>
Cc1nn(CC(C)(O)C(=O)N2CCC(O)(c3cccc4cnccc34)CC2)cc1-c1cccc(F)c1 (stereo not drawn)

>  <pIC50>
6.25

$$$$

molecule Cc1nn(CC(C)(O)C(=O)N2CCCN(c3cccc4[nH]c(=O)ccc34)CC2)cc1-c1cccc(F)c1 (stereo not drawn) , pIC50 observed: < 4.52

Short answer for Cc1nn(CC(C)(O)C(=O)N2CCC(c3cccc4[nH]c(=O)ccc34)CC2)cc1-c1cccc(F)c1 (stereo not drawn) : pIC50 was < 5.52

----------
Molecular target: human NNMT (Homo sapiens, UniProt P40261)
Sequence (P40261 1-264): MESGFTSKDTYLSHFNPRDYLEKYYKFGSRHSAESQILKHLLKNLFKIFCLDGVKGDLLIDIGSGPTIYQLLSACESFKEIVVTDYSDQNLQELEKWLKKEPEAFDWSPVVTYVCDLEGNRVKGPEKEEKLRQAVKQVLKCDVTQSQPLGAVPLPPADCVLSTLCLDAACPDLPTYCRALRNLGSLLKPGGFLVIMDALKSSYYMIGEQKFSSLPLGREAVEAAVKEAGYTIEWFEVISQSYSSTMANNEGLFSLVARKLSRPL
Assay: Fluorescence-based NNMT enzymatic assay (human enzyme)
Type: biochemical
Settings: read-out: hNNMT IC50
pIC50: −log10 of the molar value.
quantity: pIC50

(a) CC(O)(C/N=c1/sc2cccc3c2n1CCC3)C(=O)N1CCN(c2cccc3cnccc23)CC1 (centres unmarked)
(b) Cc1nn(CC(C)(O)C(=O)N2CCN(c3cccc4cnncc34)CC2)cc1-c1cccc(F)c1 (centres unmarked)
Data request: Given a and b , report the one with the higher recorded pIC50. In your reply, give the label of the chosen option.
Data returned: b

(A) Cc1nn(CC(C)(O)C(=O)N2CCN(c3cccc4[nH]c(=O)ccc34)CC2)cc1-c1cccc(F)c1 (centres unmarked)
(B) Cc1nn(CC(C)(O)C(=O)N2CCN(c3cccc4cncnc34)CC2)cc1-c1cccc(F)c1 (centres unmarked)
Data request: Record comparison, field pIC50: mark the lower of A and B . Write the label of whichever entry you select.
Data returned: B
(B: 5.96, A: 6.60)

The measurements presented in this section are drawn from paper PMC7918612.
